# reported growth inhibition; entries follow
# Method notes: NCI Yeast Anticancer Drug Screen. Data for the cln2 rad14 strain (AID 165);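 note: 0% = growth equal to vehicle treated cultures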
# Measurement setup: S. cerevisiae cln2 rad14 strain, at 50.0 µM, active compounds read high
Compounds without any hit were thinned out: in the full panel of roughly 79,000, 15% have a hit. Calls of active or inactive are those of the source. Cut-off read from the data, not from the text of the source: active = growth inhibition above about 70%; inactive = the rest.

CNC(CC(=O)O)C(=O)O (stereo not given) | -15.1% (inactive)
CCCC(C)CCCC(=O)c1ccc2cc(OC)ccc2c1 (stereo not given) | -33.3% (inactive)
CCOC(=O)CC1(C)OCC(c2ccccc2)O1 (stereo not given) | -15% (inactive)
CCOC(=O)C1C(=O)C(=O)N(C)C1c1ccccc1 (stereo not given) | -49.9% (inactive)
CN(CC(=O)c1ccc(Cl)cc1)Cc1ccccc1 | -25.3% (inactive)
Nc1cccc([N+](=O)[O-])c1O | 9.75% (inactive)

// switching to the query compound
Entry under test: CCOCC(Cl)C(OCC)OCC (stereo not given) . Its growth inhibition was -20.1% (inactive)

###

# Method notes: NCI Yeast Anticancer Drug Screen. Data for the cln2 rad14 strain (AID 165);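 note: 0% = growth equal to vehicle treated cultures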
# Measurement setup: S. cerevisiae cln2 rad14 strain, at 50.0 µM, active compounds read high
Compounds without any hit were thinned out: in the full panel of roughly 79,000, 15% have a hit.
Endpoint: growth inhibition (%)
Give just the number in %; leave the unit off.

COc1ccc(/C=C2/CCOC2=O)cc1 | -9.3
O=[N+]([O-])c1ccc(-c2cc[cH-]c2)cc1.[Fe+2].c1cc[cH-]c1 | 3.4
CCCCC1C2C(S(=O)(=O)c3ccccc3)=NOC2C=CN1C(C)=O (stereo unspecified) | 7.55
OC(CCCN1CCN2CCc3[nH]c4ccccc4c3C2C1)c1ccc(F)cc1 (stereo unspecified) | 14.3
CCOC(=O)C(C)C1CCCc2c(C)ccc(C)c21 (stereo unspecified) | -1.8

// switching to the query compound
Entry under test: CC(SCc1ccccc1)C(NC(=O)c1ccccc1)C(=O)O (stereo unspecified) . Its growth inhibition was -0.3

###

# reported growth inhibition; entries follow
# Method notes: NCI Yeast Anticancer Drug Screen. Data for the mec2-1 strain (AID 157)
# Measurement setup: S. cerevisiae mec2-1 strain, at 50.0 µM, active compounds read high
The panel holds about 79,000 compounds, 15% with a hit somewhere; the sample as a whole holds those more often.
Give just the number in %; leave the unit off.

For orientation, consider the following solved cases.
COCC(=O)C(C(C)=O)C(c1ccc(N(C)C)cc1)C(C(C)=O)C(=O)COC (configuration not stated) | -10.6
CCCC(CO)OC(=O)Nc1ccc(-c2ccccc2)cc1 (configuration not stated) | -1.1
CCCOP(=O)(CCCP(=O)(OCCC)OCCC)OCCC | -9.6
[O-]c1n[n+](Cc2ccc(Br)cc2)no1 | 15.2
COc1cccc(C(Nc2nncs2)Nc2nncs2)c1 | -9.2
C=CCN(CC=C)c1ccccc1 | 5.6
CCN1CCC(CC(c2ccccc2)c2ccccc2)C1 (configuration not stated) | -6.75
CCN(CC)CCOC(=O)c1ccc(N=Nc2cc(NC(C)=O)ccc2O)cc1 | -3.7
O=C(Cn1ccccc1=O)c1ccc(F)cc1 | -0.15
CSc1nc(NC2OCC(O)C(O)C2O)c(Br)c(=O)n1C (configuration not stated) | 15.8

Entry under test: C[C@H](CCC(=O)NCCS(=O)(=O)O)[C@H]1CC[C@H]2[C@@H]3CC[C@@H]4C[C@H](O)CC[C@]4(C)[C@H]3CC[C@]12C . Its growth inhibition was -21.1

Entry under test: CCCCCCCCCCCCCCCc1cc(O)ccc1N=O . Its growth inhibition was -16.5

This collection of values is drawn from PubChem BioAssay (NCI).
